Target: Sho1, P40073
Sequence (P40073 287-367): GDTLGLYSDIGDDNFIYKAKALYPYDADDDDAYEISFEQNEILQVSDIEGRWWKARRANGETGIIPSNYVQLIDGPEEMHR
Test: SPOT array
Conditions: median of control spots 1148
Param label: returns class 1 when SPOT intensity < 70, returns class 0 otherwise, including exact equality.

binder | class_name
VNIPSPSSSPPPIPK | class 1
VPPVPLPFGIPPFPM | class 1
GKFIPSRPAPKPPSS | class 1
LLGRKRPVMERVVDI | class 0
RPVPRRPSQPLNTLS | class 0
IVNKPLPPLPVAGSS | class 0
RTRRRPPPPPIPSTQ | class 0
